- Species: Rattus norvegicus
- Test Summary: DrugMatrix - Regimen: Daily Repeat
- Type: toxicity, organism-based, Sprague-Dawley
- Set-up: regimen Daily Repeat, gender Male, age 6-8 weeks
- Condition Summary: in vivo, po, 0 mg/kg, 72 h, tissue Blood, route oral GAVAGE, dose level Control, time 3 day, […]
Measurement Type: LYMPHOCYTE (%)
Unit % implied. Number only.

# example entries with known answers
[
  {
    "Compound": "CC(=O)Oc1ccccc1C(=O)O",
    "LYMPHOCYTE (%)": 90.17
  },
  {
    "Compound": "ClC(Cl)(Cl)Cl [CARBON TETRACHLORIDE]",
    "LYMPHOCYTE (%)": 89.67
  },
  {
    "Compound": "CCc1ccc(CCOc2ccc(CC3SC(=O)NC3=O)cc2)nc1 (centres undefined)",
    "LYMPHOCYTE (%)": 90.33
  }
]

Incoming: Please look up its LYMPHOCYTE: c1ccoc1
Outgoing: 87.95

---

- Species: Rattus norvegicus
- Test Summary: DrugMatrix - Regimen: Daily Repeat
- Format: toxicity, organism-based, Sprague-Dawley
- Design: regimen Daily Repeat, gender Male, age 6-8 weeks
- Condition Summary: in vivo, po, 0 mg/kg, 120 h, tissue Blood, route oral GAVAGE, dose level Control, time 5 day, vehicle .5 % CMC
Parameter: LYMPHOCYTE. Scope: all listed entries.
Unit % implied. Number only.

# example entries with known answers
[
  {
    "Compound": "CN1CCN(C2=Nc3cc(Cl)ccc3Nc3ccccc32)CC1",
    "Measurement Type": "LYMPHOCYTE",
    "Value Unit": "%",
    "Number": 86.83
  },
  {
    "Compound": "COc1ccccc1[N+](=O)[O-]",
    "Measurement Type": "LYMPHOCYTE",
    "Value Unit": "%",
    "Number": 85.33
  },
  {
    "Compound": "CCCNC(=O)NS(=O)(=O)c1ccc(Cl)cc1 [CHLORPROPAMIDE]",
    "Measurement Type": "LYMPHOCYTE",
    "Value Unit": "%",
    "Number": 86.83
  }
]

Incoming: Please look up its LYMPHOCYTE: CN(C)CCN(Cc1cccs1)c1ccccn1
Outgoing: 80.95

Incoming: Please look up its LYMPHOCYTE: C[C@H]1[C@H](NC(=O)/C(=N\OC(C)(C)C(=O)O)c2csc(N)n2)C(=O)N1S(=O)(=O)O
Outgoing: 90.5

---

- Species: Rattus norvegicus
- Test Summary: DrugMatrix - Regimen: Daily Repeat
- Type: toxicity, organism-based, Sprague-Dawley
- Design: regimen Daily Repeat, gender Male, age 6-8 weeks
- Condition Summary: in vivo, po, 0 mg/kg, 72 h, tissue Plasma, route oral GAVAGE, dose level Control, time 3 day, […]
Measurement Type: CARBON DIOXIDE (mmol/L)
Unit mmol/L implied. Number only.

# example entries with known answers
[
  {
    "Sample Smiles": "O=c1c(-c2ccc(O)cc2)coc2cc(O)cc(O)c12",
    "CARBON DIOXIDE, mmol/L": 30
  },
  {
    "Sample Smiles": "CC(C)c1c(C(=O)Nc2ccccc2)c(-c2ccccc2)c(-c2ccc(F)cc2)n1CC[C@@H](O)C[C@@H](O)CC(=O)O",
    "CARBON DIOXIDE, mmol/L": 30
  }
]

Incoming: Please look up its CARBON DIOXIDE: Cc1ccc(C)c(OCCCC(C)(C)C(=O)O)c1
Outgoing: 29.67

---

Parameter: NEUTROPHIL. Scope: all listed entries.
- Species on record: Rattus norvegicus
- Test Summary: DrugMatrix - Regimen: Daily Repeat
- Format: toxicity, organism-based, Sprague-Dawley
- Design: regimen Daily Repeat, gender Male, age 6-8 weeks
- Condition Summary: in vivo, po, 0 mg/kg, 72 h, tissue Blood, route oral GAVAGE, dose level Control, time 3 day, […]
Unit % implied. Number only.

# example entries with known answers
[
  {
    "Molecule": "c1ccoc1",
    "Measurement Type": "NEUTROPHIL",
    "Number": 8.05
  },
  {
    "Molecule": "CCc1ccc(CCOc2ccc(CC3SC(=O)NC3=O)cc2)nc1 (stereo not drawn)",
    "Measurement Type": "NEUTROPHIL",
    "Number": 8
  }
]

Let's switch to this molecule now.
Incoming: Please look up its NEUTROPHIL: ClC(Cl)(Cl)Cl [CARBON TETRACHLORIDE]
Outgoing: 8

---

Parameter: HEMOGLOBIN. Scope: all listed entries.
- Organism: Rattus norvegicus
- Test Summary: DrugMatrix - Regimen: Daily Repeat
- Type: toxicity, organism-based, Sprague-Dawley
- Set-up: regimen Daily Repeat, gender Male, age 6-8 weeks
- Condition Summary: in vivo, po, 0 mg/kg, 120 h, tissue Blood, route oral GAVAGE, dose level Control, time 5 day, vehicle 100 % WATER
Include the unit right after the number.

Incoming: Please look up its HEMOGLOBIN: CCN(CC)CCNC(=O)c1ccc(N)cc1 [PROCAINAMIDE]
Outgoing: 14.77 G/DL

---

Parameter: MEAN CORPUSCULAR HEMOGLOBIN CONCENTRATION. Scope: all listed entries.
- Species on record: Rattus norvegicus
- Test Summary: DrugMatrix - Regimen: Daily Repeat
- Type: toxicity, organism-based, Sprague-Dawley
- Set-up: regimen Daily Repeat, gender Male, age 6-8 weeks
- Condition Summary: in vivo, po, 0 mg/kg, 120 h, tissue Blood, route oral GAVAGE, dose level Control, time 5 day, vehicle .5 % CMC
Unit G/DL implied. Number only.

# example entries with known answers
[
  {
    "Molecule": "CCn1cc(C(=O)O)c(=O)c2cc(F)c(N3CCNC(C)C3)c(F)c21 (stereo not given)",
    "Value Unit": "G/DL",
    "Number": 37.1
  },
  {
    "Molecule": "CCCCC1=NC2(CCCC2)C(=O)N1Cc1ccc(-c2ccccc2-c2nnn[nH]2)cc1",
    "Value Unit": "G/DL",
    "Number": 32.95
  },
  {
    "Molecule": "COc1ccccc1[N+](=O)[O-]",
    "Value Unit": "G/DL",
    "Number": 36.42
  },
  {
    "Molecule": "C[C@@H]1O[C@@H](O[C@H]2C[C@@H](O)[C@]3(CO)[C@H]4[C@H](O)C[C@]5(C)[C@@H](C6=CC(=O)OC6)CC[C@]5(O)[C@@H]4CC[C@]3(O)C2)[C@H](O)[C@H](O)[C@H]1O",
    "Value Unit": "G/DL",
    "Number": 37.82
  }
]

Let's switch to this molecule now.
Incoming: Please look up its MEAN CORPUSCULAR HEMOGLOBIN CONCENTRATION: C[C@@](Cc1ccc(O)c(O)c1)(NN)C(=O)O.O
Outgoing: 37.47

---

- Organism: Rattus norvegicus
- Test Summary: DrugMatrix - Regimen: Daily Repeat
- Assay type: toxicity, organism-based, Sprague-Dawley
- Design: regimen Daily Repeat, gender Male, age 6-8 weeks
- Condition Summary: in vivo, po, 0 mg/kg, 120 h, tissue Plasma, route oral GAVAGE, dose level Control, time 5 day, […]
Measurement Type: SODIUM (MEQ/L)
Unit MEQ/L implied. Number only.

[
  {
    "Compound": "CCCCC(=O)N(Cc1ccc(-c2ccccc2-c2nnn[nH]2)cc1)[C@H](C(=O)O)C(C)C",
    "SODIUM [MEQ/L]": 143.87
  }
]

Incoming: Please look up its SODIUM: CCc1ccc(CCOc2ccc(CC3SC(=O)NC3=O)cc2)nc1 (centres undefined) [PIOGLITAZONE]
Outgoing: 145.48

Incoming: Please look up its SODIUM: CC(C)c1c(C(=O)Nc2ccccc2)c(-c2ccccc2)c(-c2ccc(F)cc2)n1CC[C@@H](O)C[C@@H](O)CC(=O)O [ATORVASTATIN]
Outgoing: 141.62

Incoming: Please look up its SODIUM: CC(=O)Oc1ccccc1C(=O)O [ASPIRIN]
Outgoing: 142.53

---

- Species on record: Rattus norvegicus
- Test Summary: DrugMatrix - Regimen: Daily Repeat
- Type: toxicity, organism-based, Sprague-Dawley
- Set-up: regimen Daily Repeat, gender Male, age 6-8 weeks
- Condition Summary: in vivo, po, 0 mg/kg, 72 h, tissue Plasma, route oral GAVAGE, dose level Control, time 3 day, vehicle .5 % CMC
Measurement Type: TOTAL BILIRUBIN (mg/dL)
Unit mg/dL implied. Number only.

[
  {
    "Compound": "CCCCC1=NC2(CCCC2)C(=O)N1Cc1ccc(-c2ccccc2-c2nnn[nH]2)cc1",
    "Measurement Type": "TOTAL BILIRUBIN",
    "Number": 0.1
  },
  {
    "Compound": "COc1ccc2c(c1OC)C(=O)O[C@@H]2[C@H]1c2c(cc3c(c2OC)OCO3)CCN1C",
    "Measurement Type": "TOTAL BILIRUBIN",
    "Number": 0.48
  },
  {
    "Compound": "C[C@H]1[C@H](NC(=O)/C(=N\\OC(C)(C)C(=O)O)c2csc(N)n2)C(=O)N1S(=O)(=O)O",
    "Measurement Type": "TOTAL BILIRUBIN",
    "Number": 0.15
  },
  {
    "Compound": "CCCNC(=O)NS(=O)(=O)c1ccc(Cl)cc1 [CHLORPROPAMIDE]",
    "Measurement Type": "TOTAL BILIRUBIN",
    "Number": 0.4
  }
]

Incoming: Please look up its TOTAL BILIRUBIN: C[C@]12CC[C@@H]3c4ccc(O)cc4CC[C@H]3[C@@H]1C[C@@H](O)[C@@H]2O
Outgoing: 0.18

Incoming: Please look up its TOTAL BILIRUBIN: COc1cc(OC)c(C(=O)CCCN2CCCC2)c(OC)c1
Outgoing: 0.2

Incoming: Please look up its TOTAL BILIRUBIN: CCC1=C(C)CN(C(=O)NCCc2ccc(S(=O)(=O)NC(=O)N[C@H]3CC[C@H](C)CC3)cc2)C1=O [GLIMEPIRIDE]
Outgoing: 0.15

Incoming: Please look up its TOTAL BILIRUBIN: C[C@@H]1O[C@@H](O[C@H]2C[C@@H](O)[C@]3(CO)[C@H]4[C@H](O)C[C@]5(C)[C@@H](C6=CC(=O)OC6)CC[C@]5(O)[C@@H]4CC[C@]3(O)C2)[C@H](O)[C@H](O)[C@H]1O
Outgoing: 0.18

Incoming: Please look up its TOTAL BILIRUBIN: COc1ccccc1[N+](=O)[O-]
Outgoing: 0.18
